Every entry's value here was drawn from PubChem BioAssay (NCATS).

Assay Protocol: qHTS assay for small molecule disruptors of the mitochondrial membrane potential - 5 hr assay (AID 651755); note: nearly all actives have a fitted effect of over 40% in size
Run Conditions: JC-1-type ratio dye; series mostly up to 92.2 µM
Inconclusive results are not listed. Activity calls are given as the source filed them. Calls come from the whole dose curve.
Measurement Type: outcome

Example entries begin here.
COCCOC(=O)c1ccccc1C(=O)OCCOC    inactive
CCCCCCCCN    inactive
Cc1ccc(C)c([N+](=O)[O-])c1    inactive
O=C(O)c1ccc(CO)o1    inactive
Cc1ccc(S(=O)(=O)NC2CCCCC2)cc1    inactive
CC(=O)CCc1ccccc1    inactive
Clc1ccccn1    inactive
O=C(Cl)c1cccc([N+](=O)[O-])c1    inactive
Cc1ccc([N+](=O)[O-])c(N)c1    inactive
CC(C)N=C=NC(C)C    inactive

Reported outcome of Cc1ccc2oc(=O)ccc2c1 : inactive

Reported outcome of Cc1nc2ccc(Cl)cc2[nH]1 : inactive

Reported outcome of NC(=O)c1cccc([N+](=O)[O-])c1 : inactive

Reported outcome of Cc1ccc2cccnc2c1 : inactive

Reported outcome of CC1(N)CCC(C(C)(C)N)CC1 (stereo unspecified) : inactive

Reported outcome of Cc1cccc2sc(N)nc12 : inactive
